- Assayed System: Voltage-gated potassium channel subunit beta-2 (Rattus norvegicus) (UniProt P62483)
- Sequence (P62483 whole entry, looked up): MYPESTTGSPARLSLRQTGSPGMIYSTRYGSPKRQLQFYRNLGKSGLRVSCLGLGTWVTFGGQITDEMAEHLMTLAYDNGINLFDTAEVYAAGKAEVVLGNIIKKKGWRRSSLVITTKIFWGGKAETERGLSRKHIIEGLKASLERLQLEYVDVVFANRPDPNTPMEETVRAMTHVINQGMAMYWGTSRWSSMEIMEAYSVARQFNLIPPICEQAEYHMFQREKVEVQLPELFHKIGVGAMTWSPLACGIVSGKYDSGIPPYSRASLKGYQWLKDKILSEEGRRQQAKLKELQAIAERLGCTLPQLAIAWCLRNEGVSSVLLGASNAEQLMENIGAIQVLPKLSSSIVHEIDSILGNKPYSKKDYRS
- Experiment Description: inhibitors of rat Kvbeta2 reductase activity – biochemical, NADPH fluorescence, primary screen (AID 622);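 also: slope of raw intensity against log time taken from 70 to 1610 s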
- Cond: recombinant KvBeta, 4-cyanobenzaldehyde reduction, at 10 µM, active compounds read high
Measured Quantity: fluorescence slope
Just the number, please, no unit attached.

Some compounds with known fluorescence slope results, for comparison:
Compound: CC(=O)Nc1cccc(NC(=O)CSc2nnnn2C)c1
Assayed System: Voltage-gated potassium channel subunit beta-2 (Rattus norvegicus) (UniProt P62483)
fluorescence slope: -0.481

Compound: O=C(Nc1cc(C(F)(F)F)ccc1Cl)c1cc(C2CC2)on1
Assayed System: Voltage-gated potassium channel subunit beta-2 (Rattus norvegicus) (UniProt P62483)
fluorescence slope: -0.45

Compound: CCc1ccc2[nH]c(=O)c(C(c3nnnn3CC3CCCO3)N3CCN4CCCC4C3)cc2c1 (stereo unspecified)
Assayed System: Voltage-gated potassium channel subunit beta-2 (Rattus norvegicus) (UniProt P62483)
fluorescence slope: -0.382

Compound: COC(=O)CN(Cc1ccco1)S(=O)(=O)c1ccccc1
Assayed System: Voltage-gated potassium channel subunit beta-2 (Rattus norvegicus) (UniProt P62483)
fluorescence slope: -0.351

Compound: Nc1[nH]nc2nc(N3CCCC3)nc(-c3ccccc3)c12
Assayed System: Voltage-gated potassium channel subunit beta-2 (Rattus norvegicus) (UniProt P62483)
fluorescence slope: -0.477

fluorescence slope lookup needed for Cc1nonc1NC(=O)c1ccccc1Br , thanks.
-0.346

###

- Experiment Description: endothelial E-selectin expression blockers – imaging, HUVEC, immunofluorescence, MLSMR starter and 10KST1 sets, primary screen (AID 487);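 also: signal is fraction of cell area covered by stained E-selectin grains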
- Cond: HUVEC TNFalpha-induced E-selectin immunofluorescence imaging, at 2 µM; active compounds read high
Each entry below carries its recorded inhibition.
Field format: number, assumed %, no unit text.

Compound: CCN(Cc1nc2cc(OC)c(OC)cc2c(=O)[nH]1)C(=O)c1ccc(S(=O)(=O)N(C)C)cc1
Quantitative Result: 14.8
--
Compound: O=S1(=O)Nc2c(ccc3cccnc23)-c2ccccc21
Quantitative Result: 47.4
--
Compound: CC(=O)N1CN(C2CCCC2)Cc2c1sc1c2CCCC1
Quantitative Result: 26.2
--
Compound: Cc1nc2cc(NC(=O)N3c4ccccc4CC3C)ccc2o1 (stereo not drawn)
Quantitative Result: -10.4
--
Compound: Cc1cc(C(=O)COc2cccc3cccnc23)c(C)n1C
Quantitative Result: -154
--
Compound: COc1ccccc1N1CCN(C(=O)C2CC=CCC2C(=O)O)CC1 (stereo not drawn)
Quantitative Result: 24.2
--
Compound: CCOC(=O)c1cc(-c2nnc(-c3ccc(Oc4ccccc4)cc3)o2)c(C)nc1C
Quantitative Result: -20.7
--
Compound: Cc1nnc(SC(=O)N2c3ccccc3Sc3ccccc32)s1
Quantitative Result: 27.8

Quick one: inhibition for CCC(C)NC(=O)CS(=O)(=O)Cc1nc(-c2cccc(OC)c2)oc1C (stereo not drawn) ?
-44.8

Now consider CS(=O)(=O)N1CCN(C(=O)c2ccc(-c3ccccc3)cc2)CC1 .
-287

Same read-out for CCOC(=O)c1ccccc1NC(=O)Cn1cnc2c(cnn2-c2ccc(OC)cc2)c1=O ?
-0.4

Check Cn1cc(Cl)c(C(=O)N(Cc2ccccc2)c2ccccn2)n1 too.
-5.2

Quick one: CCOC(=O)C1CCN(c2c(NC3CCCCCCC3)c(=O)c2=O)CC1
-53.1

Input O=C(O)c1oc2ccccc2c1-n1cccc1
-0.2

Item: Cc1cc(NC(=O)CS(=O)(=O)c2cn(Cc3ccccc3Cl)c3ccccc23)no1
67.2

Please give the result for c1ccc2c(c1)C(=Nn1cnnc1)c1ccccc1-2 too.
-107
